target: T1, His-tagged PD-L1 protein (human, UniProt Q9NZQ7 19-238); test: SPR, Biacore T200, multi-cycle; Fab captured on chip, His-tagged PD-L1 as analyte
T1 construct: also called His-tagged antigen PD-L1 protein; human PD-L1; not shown: His tag
T1 sequence (Q9NZQ7 19-238 limits assumed): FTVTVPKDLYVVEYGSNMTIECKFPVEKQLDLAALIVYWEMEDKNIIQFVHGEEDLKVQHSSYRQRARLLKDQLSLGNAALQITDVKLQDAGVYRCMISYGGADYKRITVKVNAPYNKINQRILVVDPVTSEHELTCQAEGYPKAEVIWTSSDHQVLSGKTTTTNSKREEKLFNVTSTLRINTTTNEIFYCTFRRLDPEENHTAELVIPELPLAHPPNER
Parameter class (string): assigned from measured kon. Ranges: bucket A = under 400000 M⁻¹ s⁻¹, bucket B = from 400000 M⁻¹ s⁻¹ up to 500000 M⁻¹ s⁻¹, bucket C = 500000 M⁻¹ s⁻¹ and over

Binder | Assigned Class
AS01789 (humanized Fab) (Fab, V domains shown, Purified humanized Fab) VH: EVQLVQSGAEVKKPGESLKISCKGSGYSFTSYSINWVRQAPGQALEWMGYFYVGNGYTDYNEKFKGRVTITRDTSASTAYMELSSLRSEDTAVYYCARGDLPFYFDYWGDGILVTVAS VL: DIVMTQSPDSLAVSLGERATINCKTSQDVNTAVAWYQQKPGQPPKLLIYWASTRHTGVPDRFSGSGSGTDFTLKISRVEAEDVGVYYCQQHYNTPLTFGGGTKLEIK | bucket A
AS01824 (humanized Fab) (Fab, V domains shown, Purified humanized Fab) VH: QVQLVQSGSELKKPGASVKVSCKASGYTFTSYSINWVRQAPGKGLEWVAYFYVGNGYTDYNEKFKGRVTITADESTSTAYMELSSLRSEDTAVYYCARGGLPYYFDYWGQGTLVTVSS VL: EIVMTQSPATLSVSPGERATLSCKTSQDVNTAVAWYLQKPGQSPQLLIYWASTRHTGVPSRFSGSGSGTDYTLTISSLQPEDFATYYCQQHYNTPLTFGGGTKLEIK | bucket C
AS01825 (humanized Fab) (Fab, V domains shown, Purified humanized Fab) VH: QMQLVQSGAEVKKTGSSVKVSCKASGYTFTSYSINWVRQMPGKGLEWMGYFYVGNGYTDYNEKFKGRVTITADESTSTAYMELSSLRSEDTAVYYCARGGLPYYFDYWGQGTLVTVSS VL: DIQLTQSPSFLSASVGDRVTITCKTSQDVNTAVAWYQQKPGKAPKLLIYWASTRHTGVPSRFSGSGSGTDFTLTISSLQPEDVATYYCQQHYNTPLTFGGGTKLEIK | bucket A
AS01979 (humanized Fab) (Fab, V domains shown, Purified humanized Fab) VH: EVQLVQSGAEVKKPGESLKISCKGSGYSFTSYSINWVRQAPGKGLEWMGYFYVGNGYTDYNEKFKGRVTMTRNTSISTAYMELSSLRSEDTAVYYCARGGLPYYFDYWGQGTLVTVSS VL: DIQMTQSPSSVSASVGDRVTITCKTSQDVNTAVAWYQQKPGQPPKLLIYWASTRHTGVPDRFSGSGSGTDFTLTISSLQAEDVAVYYCQQHYNTPLTFGGGTKLEIK | bucket B
AS02002 (humanized Fab) (Fab, V domains shown, Purified humanized Fab) VH: QMQLVQSGAEVKKTGSSVKVSCKASGYTFTSYSINWVRQARGQRLEWIGYFYVGNGYTDYNEKFKGRVTITADESTSTAYMELSSLRSEDTAVYYCARGGLPYYFDYWGQGTLVTVSS VL: DIQMTQSPSSLSASVGDRVTITCKTSQDVNTAVAWYQQKPDQSPKLLIKWASTRHTGIPARFSGSGSGTEFTLTISSLQSEDFAVYYCQQHYNTPLTFGGGTKLEIK | bucket A
AS01995 (humanized Fab) (Fab, V domains shown, Purified humanized Fab) VH: EVQLVQSGAEVKKPGESLKISCKGSGYSFTSYSINWVRQAPGKGLEWMGYFYVGNGYTDYNEKFKGRVTMTRNTSISTAYMELSSLRSEDTAVYYCARGGLPYYFDYWGQGTLVTVSS VL: DIQMTQSPSSVSASVGDRVTITCKTSQDVNTAVAWYQQKPGKAPKLLLYWASTRHTGVPSRFSGSGSGTDFTLTISSLQPEDVATYYCQQHYNTPLTFGGGTKLEIK | bucket B
AS01814 (humanized Fab) (Fab, V domains shown, Purified humanized Fab) VH: QVQLVQSGSELKKPGASVKVSCKASGYTFTSYSINWVRQAPGKGLEWVAYFYVGNGYTDYNEKFKGRVTITADESTSTAYMELSSLRSEDTAVYYCARGGLPYYFDYWGQGTLVTVSS VL: DIQMTQSPSTLSASVGDRVTITCKTSQDVNTAVAWYQQKPGKAPKLLLYWASTRHTGIPARFSGSGSGTEFTLTISSLQSEDFAVYYCQQHYNTPLTFGGGTKLEIK | bucket C
murine-human chimeric Fab (from mAb PDL1#10) (Fab, V domains shown) VH: EVQLQQSGAELVRPGSSVKMSCKTSGYTFTSYSINWVKQRPGQGLEWIAYFYVGNGYTDYNEKFKGKATLTSDTSSSTAYMQLSSLTSEDSAIYFCARGGLPYYFDYWGQGTTLTVSS VL: DIVMTQSHKFMSTSVGDRVSITCKTSQDVNTAVAWYQQKPGHSPKLLFYWASTRHTGVPDRFTGGGSGTDYTLTISSVQAEDLALYYCQQHYNTPLTFGAGTRLELKR | bucket C
